Measured pIC50 accompanies every entry in the list below.
molecular target: wild-type HIV-1 protease (Human immunodeficiency virus type 1 group M subtype B, UniProt P04585)
A value of pIC50 is the negative decimal logarithm of a concentration given in moles per litre.

A selection of reference data follows.
{"compound": "N=C1NC(CCC2CC2)(c2ccc(C(F)(F)F)cc2)C(=O)N1Cc1ccc(C(F)(F)F)c(C(=O)N2CCn3c(nnc3C(F)(F)F)C2)c1 (stereo not drawn) [Compound 131]", "pIC50": 7.07}
{"compound": "CSc1nnc2n1CCN(C(=O)c1cccc(CN3C(=N)NC(c4ccccc4)(c4ccccc4)C3=O)c1)C2", "pIC50": 7.76}
{"compound": "COC(=O)Nc1ncc2c(n1)CN(C(=O)c1cc(CN3C(=N)NC(c4ccc(F)cc4)(c4ccc(F)cc4)C3=O)ccc1F)C2", "pIC50": 8.24}
{"compound": "COC(=O)Nc1ncc2c(n1)CN(C(=O)c1cccc(CN3C(=N)N[C@](CCC(C)C)(c4ccccc4)C3=O)c1)C2", "pIC50": 8.65}
{"compound": "CN(C)S(=O)(=O)c1cccc(-c2ncc3c(n2)CN(C(=O)c2cc(CN4C(=N)N[C@](CCCC(F)(F)F)(c5ccc(F)cc5)C4=O)ccc2C(F)(F)F)C3)c1", "pIC50": 8.11}

Please find the next compound below.
Exercise: Fill in the blank: the reported pIC50 of "N=C1NC(c2ccc(F)cc2)(c2ccc(F)cc2)C(=O)N1Cc1cccc(C(=O)N2Cc3cncnc3C2)c1" is ____.
Solution: 7.64

Taken from patent US20200069691A1.
